- Test system: P388 leukemia ip, CD2F1 mice, survival T/C
- protocolSummary: NCI In Vivo Anticancer Drug Screen. Data for tumor model P388 Leukemia (intraperitoneal) in CD2F1 (CDF1) mice
- conditionParameters: endpoint: median survival time; dose: 200.0 mg/kg/injection; schedule: Q04DX002 (ip); vehicle: saline with Tween-80; higher = longer survival
Toxic doses and inconclusive results are not listed.
recordedMetric: T/C

| compound | valueReported |
| --- | --- |
| CC1C(=O)C23CC1CCC2C12COC(=O)C1C(C)(C)C(=O)CC2OC3=O (stereo not drawn) | 94 % of control |
| CCOP(=S)(Nc1ccc(F)cc1F)OCC | 95 % of control |
| CC(=O)/C=N/OC(=O)c1ccccc1 | 99 % of control |
| CS/C(N)=N/NC(=O)CCC(=O)Nc1cc(C)ccc1C | 101 % of control |
| CCCCC[C@@H]1CCCC2C1CC[C@@H](CCCCCI)N2C(=O)OCC(Cl)(Cl)Cl (stereo partly drawn) | 100 % of control |
| O=C1OC(c2ccccc2)=N/C1=C\c1ccc(/C=C2/N=C(c3ccccc3)OC2=O)cc1 | 104 % of control |
| C=C(C#N)C1OC2OC(C)(C)OC2C1OCCCCCCCC (stereo not drawn) | 106 % of control |
| [Ni+2].[O-]c1ccccc1C=NCCCCCCN=Cc1ccccc1[O-] | 93 % of control |
| O=C1C2=C(OCCO2)C(=O)C2=C1OCCO2 | 111 % of control |
| CC1(Cl)C(c2ccccc2)=[N+]([O-])[N+]([O-])=C1c1ccccc1 | 112 % of control |
| CCn1cc(C(=O)O)c(=O)c2ccc(C)[n+](CCSC(=N)N)c21 | 99 % of control |
| Cc1ccc(S(=O)(=O)O/N=C(/CC/C(=N\OS(=O)(=O)c2ccc(C)cc2)c2ccccc2)c2ccccc2)cc1 | 115 % of control |
| COc1c(CC(C)O)c2c3c(CC(C)O)c(OC)c(=O)c4cc(O)c5c(c6c(c(O)cc(c1=O)c26)OCO5)c43 (stereo not drawn) | 115 % of control |

---

- Test system: P388 leukemia ip, CD2F1 mice, survival T/C
- protocolSummary: NCI In Vivo Anticancer Drug Screen. Data for tumor model P388 Leukemia (intraperitoneal) in CD2F1 (CDF1) mice
- conditionParameters: endpoint: median survival time; dose: 50.0 mg/kg/injection; schedule: Q01DX009 (ip); vehicle: saline
- Description: The antitumor activity of compounds was measured in mice bearing transplantable tumors. Survival or tumor size were measured and the results are expressed as the measurement made in the treated group (T) divided by the measurement made in the vehicle treated control group (C). The tumor model used in this assay is P388 Leukemia (intraperitoneal) in CD2F1 (CDF1) mice
Toxic doses and inconclusive results are not listed. How the source made its calls: active means survival T/C of 150% or more; inactive means T/C below 125% in these data.
Classes used: true (active), false (inactive)

| compound | targetOrTestSystem | className |
| --- | --- | --- |
| O=C(O)c1cc([N+](=O)[O-])cc([N+](=O)[O-])c1Sc1ncccn1 | P388 leukemia ip, CD2F1 mice, survival T/C | false |
| [CH3][Ge]([O][Ge]([CH3])([c]1ccccc1)[c]1ccccc1)([c]1ccccc1)[c]1ccccc1 | P388 leukemia ip, CD2F1 mice, survival T/C | false |
| O=C1CCC(CCl)(C(=O)O)O1 (centres undefined) | P388 leukemia ip, CD2F1 mice, survival T/C | false |
| N#C/C(=C\c1ccccn1)c1nc(-c2ccc(Cl)cc2)cs1 | P388 leukemia ip, CD2F1 mice, survival T/C | false |
| Clc1ccnc2ccc3ccccc3c12 | P388 leukemia ip, CD2F1 mice, survival T/C | false |
| CC1N=C(SCC(=O)c2ccc(F)cc2)N2C(C)N=C(SCC(=O)c3ccc(F)cc3)N12 (centres undefined) | P388 leukemia ip, CD2F1 mice, survival T/C | false |
| [Co].[N-]=C=S.[N-]=C=S.[N-]=C=S.[N-]=C=S | P388 leukemia ip, CD2F1 mice, survival T/C | true |
| CCCCC(O)c1ccc[n+]([O-])c1 (centres undefined) | P388 leukemia ip, CD2F1 mice, survival T/C | false |
| O=C(Nc1ccc(Cl)cc1C(F)(F)F)Oc1ccc(-c2ccccc2)cc1Br | P388 leukemia ip, CD2F1 mice, survival T/C | false |
| COC1=Cc2c(oc3c(C(C)(C)C)cc(OC)cc23)OC(C(C)(C)C)=C1 | P388 leukemia ip, CD2F1 mice, survival T/C | false |
| CN(C)c1ccc(/C=C(\C#N)C(N)=S)cc1 | P388 leukemia ip, CD2F1 mice, survival T/C | false |
| N#Cc1cnn(-c2ccc([N+](=O)[O-])cc2[N+](=O)[O-])c1N | P388 leukemia ip, CD2F1 mice, survival T/C | false |
| Nc1nc2c(c(=O)[nH]1)CNC2=O | P388 leukemia ip, CD2F1 mice, survival T/C | false |
| O=C(O)[C@@H]1C[C@@H](O)CN1 | P388 leukemia ip, CD2F1 mice, survival T/C | false |
| FC(F)(F)c1ccc(Cl)c(NC(=S)SC2CCCCC2)c1 | P388 leukemia ip, CD2F1 mice, survival T/C | false |
| O=C(Oc1ccc(Cl)cc1Cl)C(Cl)=C(Cl)Cl | P388 leukemia ip, CD2F1 mice, survival T/C | false |
| C1CN(CCSSCCN2CCOCC2)CCO1 | P388 leukemia ip, CD2F1 mice, survival T/C | false |
| COc1cccc(C(=O)OCCC(C)C)c1O | P388 leukemia ip, CD2F1 mice, survival T/C | false |
| CC(C)(C)OP(=O)(NN)OC(C)(C)C | P388 leukemia ip, CD2F1 mice, survival T/C | false |

---

- Test system: P388 leukemia ip, CD2F1 mice, survival T/C
- protocolSummary: NCI In Vivo Anticancer Drug Screen. Data for tumor model P388 Leukemia (intraperitoneal) in CD2F1 (CDF1) mice
- conditionParameters: endpoint: median survival time; dose: 200.0 mg/kg/injection; schedule: Q01DX009 (ip); vehicle: saline; higher = longer survival
- Method: The antitumor activity of compounds was measured in mice bearing transplantable tumors. Survival or tumor size were measured and the results are expressed as the measurement made in the treated group (T) divided by the measurement made in the vehicle treated control group (C). The tumor model used in this assay is P388 Leukemia (intraperitoneal) in CD2F1 (CDF1) mice
Inconclusive results and toxic doses are left out.
T/C for assorted compounds

| compound | T/C |
| --- | --- |
| CC(=O)Oc1cccnc1 | 95 % of control |
| CC(C)CC(NC(=O)OC(C)(C)C)C(=O)NC(Cc1c[nH]c2ccccc12)C(=O)NN (configuration not stated) | 92 % of control |
| CC1=CN2CCC(=O)N=C2C=C1 | 94 % of control |
| c1ccc2c(C3CO3)c3ccccc3c(C3CO3)c2c1 (configuration not stated) | 116 % of control |
| CCCCCCCCCCCCCCCCCCCCN1CCOCC1 | 90 % of control |
| C=CC[Si](CC=C)(c1ccccc1)c1ccccc1 | 98 % of control |
| Cc1cc(C)n(-c2cc(N3CCOCC3)ncn2)n1 | 98 % of control |
| O=C1CCC(CCl)(C(=O)O)O1 (configuration not stated) | 91 % of control |
| O=CNCNC=O | 99 % of control |
| O=[N+]([O-])c1cc2c(cc1Cl)C1C(C3C2C2(Cl)C(Cl)=C(Cl)C3(Cl)C2(Cl)Cl)C2(Cl)C(Cl)=C(Cl)C1(Cl)C2(Cl)Cl (configuration not stated) | 106 % of control |
| CC(C)SC(=S)Nc1ccc(Cl)c([N+](=O)[O-])c1 | 103 % of control |
| N=C(N)SCCCN | 112 % of control |
| CN1CCN(CCSSCCN2CCN(C)CC2)CC1 | 109 % of control |
| CN(C)c1ccc(/C=C(\C#N)C(N)=S)cc1 | 106 % of control |
| COCCOC | 100 % of control |
| Cc1nc2[nH][nH]c(=O)c2nc1C | 102 % of control |
| [CH3][Ge]([O][Ge]([CH3])([c]1ccccc1)[c]1ccccc1)([c]1ccccc1)[c]1ccccc1 | 92 % of control |
| CCOC(=O)C(C(=O)OCC)C(C)(C)C | 109 % of control |
| Cc1ccc(NC(=S)NC(=O)/C=C/c2ccccc2)cc1Cl | 97 % of control |
| COC1=Cc2c(oc3c(C(C)(C)C)cc(OC)cc23)OC(C(C)(C)C)=C1 | 100 % of control |
| O=S(=O)(O)c1cccnc1 | 104 % of control |
| COC(=O)CS(=O)(=O)CCCCS(=O)(=O)CC(=O)OC | 103 % of control |
